Where these numbers come from: patent US4182896A

system: SPF male rats, OFA strain; assay: Anti-inflammatory activity: paw swelling after subcutaneous plantar injection of carraghenine, oral administration; format: in vivo; conditions: Rattus norvegicus, po, 32 mg/kg oral, carraghenine, read-out: percentage reduction in the inflammation

| Molecule | inhibition in vivo at 32 mg/kg / % |
| --- | --- |
| CC(CO)c1ccc2c(c1)CC(C(C)C)C2 (stereo not shown) [Example 33] | 34 |
| CC(C(=O)OCCN1CCOCC1)c1ccc2c(c1)CC(C(C)C)C2 (stereo not shown) [Example 9] | 68 |
| CC1Cc2ccc(CCO)cc2C1 (stereo not drawn) [Example 35, β-[2-Methyl-indanyl-(5)]-ethanol] | 42 |
| CCC1Cc2ccc(C(C)CO)cc2C1 (stereo not drawn) [Example 34, 2-Methyl-β-[2-ethyl-indanyl-(5)]-ethanol] | 42 |
| CC(C)C1Cc2ccc(CCO)cc2C1 (stereo not drawn) [Example 37, β-[2-Isopropyl-indanyl-(5)]-ethanol] | 1 |
| CC(C(=O)OCCN1CCOCC1)c1ccc2c(c1)CC(C1CCCCC1)C2 (stereo not shown) [Example 25] | 28 |
| CCC1Cc2ccc(C(C)C(=O)OCCN3CCOCC3)cc2C1 (stereo not shown) [Example 26] | 47 |

----------
This listing pairs compounds with measured inhibition in vivo at 32 mg/kg.
tested on: male mice (SPF1, OF1 strain); experiment: Analgesic activity: inhibition of pain reactions (abdominal twistings) after intraperitoneal phenylbenzoquinone, oral administration; assay type: in vivo; conditions: Mus musculus, po, 32 mg/kg oral, read-out: percentage inhibition of pain reactions

| Compound | inhibition in vivo at 32 mg/kg / % |
| --- | --- |
| CC1CC(C)c2cc(CC(=O)O)c(Cl)cc21 (stereo not shown) [Example 3] | 51 |
| CC(C(=O)OCCN1CCOCC1)c1ccc2c(c1)CC(C(C)C)C2 (stereo not shown) [Example 9] | 28 |
| CCC1Cc2ccc(C(C)C(=O)O)cc2C1 (stereo not shown) [Example 18] | 95 |
| CC(C(=O)OCCN1CCOCC1)c1ccc2c(c1)CC(C)(C)C2 (stereo not shown) [Example 24] | 32 |
| CC(C)C1Cc2ccc(CC(=O)O)cc2C1 (stereo not shown) [Example 4, [2-Isopropyl-indanyl-(5)]-acetic acid] | 33 |
| CC1Cc2ccc(CCO)cc2C1 (stereo not drawn) [Example 35, β-[2-Methyl-indanyl-(5)]-ethanol] | 10 |
| CC1(C)Cc2ccc(CC(=O)O)cc2C1 [Example 13, [2,2-Dimethyl-indanyl-(5)]-acetic acid] | 30 |
| CC1CC(C)c2cc(CC(=O)O)ccc21 (stereo not shown) [Example 1, [1,3-Dimethyl-indanyl-(5)]-acetic acid] | 28 |
| CC(C(=O)OCCN(C)C)c1ccc2c(c1)CC(C(C)C)C2 (stereo not shown) [Example 27] | 69 |
| CC1Cc2ccc(C(C)C(=O)O)cc2C1 (stereo not shown) [Example 15] | 68 |
| CC1Cc2ccc(CC(=O)O)cc2C1 (stereo not shown) [Example 12, [2-Methyl-indanyl-(5)]-acetic acid] | 9 |
| CCC1Cc2ccc(C(C)CO)cc2C1 (stereo not drawn) [Example 34, 2-Methyl-β-[2-ethyl-indanyl-(5)]-ethanol] | 12 |
| CC(CO)c1ccc2c(c1)CC(C(C)C)C2 (stereo not shown) [Example 33] | 90 |
| CC(C(=O)O)c1ccc2c(c1)CC(C(C)C)C2 (stereo not shown) [Example 7] | 96 |
| CC(C(=O)O)c1ccc2c(c1)CC(C1CCCCC1)C2 (stereo not shown) [Example 14] | 20 |
| CCC(C(=O)O)c1ccc2c(c1)CC(C(C)C)C2 (stereo not shown) [Example 20] | 26 |
| CCN(CC)CCOC(=O)C(C)c1ccc2c(c1)CC(C(C)C)C2 (stereo not shown) [Example 28] | 66 |
| CC(C(=O)OCCN1CCCC1)c1ccc2c(c1)CC(C(C)C)C2 (stereo not shown) [Example 32] | 79 |
| CC(C(=O)O)c1ccc2c(c1)CC(C)(C)C2 (stereo not shown) [Example 16] | 77 |
